assayed_system: EGFR on EGFR positive non-small cell lung cancer cells NCI-H1650 (UniProt P00533 25-1210)
test: cell-based or functional assay
So I've got a bunch of binders here, and I need their H1650 GFP Flourescence EC50 values.

Task: Fill in the blank: the reported H1650 GFP Flourescence EC50 of AbA-TX (antibody, human IgG1, kappa, V domains shown, synthon TX on reduced interchain cysteines; average DAR 2.8 per ADC) VH: EVQLQESGPGLVKPSQTLSLTCTVSGYSISRDFAWNWIRQPPGKGLEWMGYISYNGNTRYQPSLKSRITISRDTSKNQFFLKLNSVTAADTATYYCVTASRGFPYWGQGTLVTVSS VL: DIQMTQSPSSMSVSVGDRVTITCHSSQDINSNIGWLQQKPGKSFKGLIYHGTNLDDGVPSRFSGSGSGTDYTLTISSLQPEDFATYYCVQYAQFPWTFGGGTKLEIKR is ____.
Result: 13.9 µg/mL

Task: Similarly, AbG-KZ (antibody, human IgG1, kappa, V domains shown, synthon KZ on reduced interchain cysteines; average DAR 2.7 per ADC) VH: EVQLQESGPGLVKPSQTLSLTCTVSGYSISNDFAWNWIRQLPGKGLEWMGYISYKGNTRYQPSLKSRITISRDTSKNQFFLKLNSVTAADTATYYCVTASRGLPYWGQGTLVTVSS VL: DIQMTQSPSSMSVSVGDRVTITCHSSQDITYNIGWLQQKPGKSFKGLIYHGANLDDGVPSRFSGSGSGTDYTLTISSLQPEDFATYYCVQYDEFPWTFGGGTKLEIKR ?
Result: 38.2 µg/mL
